Attribute: pKd
Molecular target: T1, sIL-6R (soluble IL-6 receptor; SBH Sciences) (human, UniProt P08887 20-365)
T1 construct: also called human IL-6R
T1 sequence: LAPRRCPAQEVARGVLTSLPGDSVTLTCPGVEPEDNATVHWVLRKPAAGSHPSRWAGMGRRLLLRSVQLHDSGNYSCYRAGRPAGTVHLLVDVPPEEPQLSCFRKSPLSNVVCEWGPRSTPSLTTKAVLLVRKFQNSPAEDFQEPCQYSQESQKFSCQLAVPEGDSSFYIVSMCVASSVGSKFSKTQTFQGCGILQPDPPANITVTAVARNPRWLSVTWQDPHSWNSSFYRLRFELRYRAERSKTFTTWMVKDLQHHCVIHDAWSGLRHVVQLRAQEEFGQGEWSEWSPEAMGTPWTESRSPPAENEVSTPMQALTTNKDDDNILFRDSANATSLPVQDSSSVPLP
Assay: SPR (BIAcore 3000), antibody on chip, sIL-6R analyte, 25 C
pKd: −log10 of the molar value.

binder	pKd
237# (antibody, human IgG1, kappa, V domains shown, also called Sample # 237) VH: QVQLQESGPGLVRPSQTLSLTCTVSGYSITSDHAWSWVRQPPGRGLEWIGYISYSGMTTYNPSLKSRVTMLRDTSKNQFSLRLSSVTAADTAVYYCARCLARTTAMDYWGQGSLVTVSS VL: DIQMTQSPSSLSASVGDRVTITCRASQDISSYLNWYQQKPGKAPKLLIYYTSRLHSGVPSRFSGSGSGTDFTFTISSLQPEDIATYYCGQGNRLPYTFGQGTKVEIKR	10.22
225# (antibody, human IgG1, kappa, V domains shown) VH: QVQLQESGPGLVRPSQTLSLTCTVSGYSITSDHAWSWVRQPPGRGLEWIGYISYSGMITYNPSLKSRVTMLRDTSKNQFSLRLSSVTAADTAVYYCARCLARTTAMDYWGQGSLVTVSS VL: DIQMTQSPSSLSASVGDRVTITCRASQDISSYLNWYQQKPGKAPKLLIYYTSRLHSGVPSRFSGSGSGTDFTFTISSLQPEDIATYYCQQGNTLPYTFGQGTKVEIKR	9.19
226# (antibody, human IgG1, kappa, V domains shown) VH: QVQLQESGPGLVRPSQTLSLTCTVSGYSITSDHAWSWVRQPPGRGLEWIGYISYSGMITYNPSLKSRVTMLRDTSKNQFSLRLSSVTAADTAVYYCARCLARATAMDYWGQGSLVTVSS VL: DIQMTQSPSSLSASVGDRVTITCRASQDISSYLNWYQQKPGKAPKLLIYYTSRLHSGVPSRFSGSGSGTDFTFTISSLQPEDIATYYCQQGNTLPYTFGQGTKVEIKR	9.99
